TESTED_TARGET: Human GLP-1R (Homo sapiens, UniProt P43220)
Sequence (P43220 24-463): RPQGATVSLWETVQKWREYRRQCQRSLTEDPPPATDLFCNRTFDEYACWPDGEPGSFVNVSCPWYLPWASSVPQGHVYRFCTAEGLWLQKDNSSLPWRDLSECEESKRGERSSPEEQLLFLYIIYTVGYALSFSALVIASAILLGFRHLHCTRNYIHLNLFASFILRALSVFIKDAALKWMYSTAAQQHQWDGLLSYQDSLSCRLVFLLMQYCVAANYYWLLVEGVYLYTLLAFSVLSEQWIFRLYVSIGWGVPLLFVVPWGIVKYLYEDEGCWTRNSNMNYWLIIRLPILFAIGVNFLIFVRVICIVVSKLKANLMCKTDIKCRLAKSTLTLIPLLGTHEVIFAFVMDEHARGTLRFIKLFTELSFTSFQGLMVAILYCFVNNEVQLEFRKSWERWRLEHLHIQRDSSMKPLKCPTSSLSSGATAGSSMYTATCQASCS
METHOD_DESCRIPTION: cAMP level determination in human GLP-1R stably transfected HEK293T cells (HTRF cAMP kit)
REPORTED_CONDITIONS: 37°C 30 min
QUANTITY_MEASURED: pEC50
Interpret pEC50 as the negative base-10 log of the concentration measured in mol/L.

compound Cc1cc(-n2nc3c(c2-n2ccn(-c4ccc(C#N)cn4)c2=O)[C@H](C)N(C(=O)c2cc4cc(C5CCOC(C)(C)C5)ccc4n2[C@@]2(c4nc(=O)o[nH]4)C[C@@H]2C)CC3)cc(C)c1F (stereo partly drawn) , pEC50 observed: 7.30

// pEC50 value for Cc1cc(-n2nc3c(c2-n2ccn(-c4ccc5c(c4)S(=O)(=O)CCC5)c2=O)[C@H](C)N(C(=O)c2cc4cc(C5CCOC(C)(C)C5)ccc4n2[C@@]2(c4nc(=O)o[nH]4)C[C@@H]2C)CC3)cc(C)c1F (stereo partly drawn) : 7.82

Memo: Cc1cc(-n2nc3c(c2-n2ccn(-c4ccc(N(C)C(=O)C5CC5)c(F)c4)c2=O)[C@H](C)N(C(=O)c2cc4cc(C5CCOC(C)(C)C5)ccc4n2[C@@]2(c4noc(=O)[nH]4)C[C@@H]2C)CC3)cc(C)c1F (stereo partly drawn) , reported pEC50: 8.06

###

Task for the reader: assign each of the following molecules its reported EC50.
TESTED_TARGET: Human GLP-1R (Homo sapiens, UniProt P43220)
METHOD_DESCRIPTION: cAMP level determination in human GLP-1R stably transfected HEK293T cells (HTRF cAMP kit)
REPORTED_CONDITIONS: 37°C 30 min

Note to self: EC50 recorded for Cc1cc(-n2nc3c(c2-n2ccn(-c4ccc(C#N)c(F)c4)c2=O)[C@H](C)N(C(=O)c2cc4cc([C@@H]5CCOC(C)(C)C5)ccc4n2[C@@]2(c4nc(=O)o[nH]4)C[C@@H]2C)CC3)cc(C)c1F [Compound 82a] was 459 nM

Record summary for Cc1cc(-n2nc3c(c2-n2ccn(-c4ccc(C(F)(F)F)c(C(=O)N(C)C5CC5)c4)c2=O)[C@H](C)N(C(=O)c2cc4cc(C5CCOC(C)(C)C5)ccc4n2[C@@]2(c4nc(=O)o[nH]4)C[C@@H]2C)CC3)cc(C)c1F (some centres unmarked) : reported EC50 = 18.8 nM

###

TESTED_TARGET: Human GLP-1R (Homo sapiens, UniProt P43220)
METHOD_DESCRIPTION: cAMP level determination in human GLP-1R stably transfected HEK293T cells (HTRF cAMP kit)
Type: cell-based
REPORTED_CONDITIONS: 37°C 30 min
QUANTITY_MEASURED: pEC50
Answer as the number alone; pEC50 is minus log10 of concentration in mol/L.

The molecule Cc1cc(-n2nc3c(c2-n2ccn(-c4c(F)cccc4C(=O)N(C)C4CC4)c2=O)[C@H](C)N(C(=O)c2cc4cc(C5CCOC(C)(C)C5)ccc4n2[C@@]2(c4nc(=O)o[nH]4)C[C@@H]2C)CC3)cc(C)c1F (stereo partly shown) [Compound 40] on Human GLP-1R (Homo sapiens, UniProt P43220): pEC50 was 6.81

Record for Cc1cc(-n2nc3c(c2-n2ccn(-c4ccc(C#N)c(C)c4F)c2=O)[C@H](C)N(C(=O)c2cc4cc(C5CCOC(C)(C)C5)ccc4n2[C@@]2(c4nc(=O)o[nH]4)C[C@@H]2C)CC3)cc(C)c1F (stereo partly shown) [Compound 96] under target or system Human GLP-1R (Homo sapiens, UniProt P43220): pEC50 reported as 8.13

// assay Human GLP-1R (Homo sapiens, UniProt P43220), entry Cc1cc(-n2nc3c(c2-n2ccn(-c4ccc(C(=O)N(C)C5CC5)nc4)c2=O)[C@H](C)N(C(=O)c2cc4cc(C5CCOC(C)(C)C5)ccc4n2[C@@]2(c4nc(=O)o[nH]4)C[C@@H]2C)CC3)cc(C)c1F (stereo partly shown) [Compound 24] , pEC50 value = 7.27

Log: Human GLP-1R (Homo sapiens, UniProt P43220), molecule Cc1cc(-n2nc3c(c2-n2ccn(-c4ccc(C(=O)N(C)C5(C#N)CC5)c(F)c4)c2=O)[C@H](C)N(C(=O)c2cc4cc(C5CCOC(C)(C)C5)ccc4n2[C@@]2(c4nc(=O)o[nH]4)C[C@@H]2C)CC3)cc(C)c1F (stereo partly shown) [Compound 23] , pEC50 = 7.86
